The reported numbers originate from the supplement of paper PMC9112550.

Answer each item with its documented shrunken log2 fold change.
Test system: Escherichia coli TOP10
experiment: shrunken log2 fold change of peptide-encoding DNA abundance (4.5 h post-induction vs induction); higher = less antimicrobial activity (less host growth inhibition)
condition-details: time post-induction: 4.5 h; library: site-saturation at positions 5, 18, 19, 20
Answers are plain numbers.

Examples with answers:
{"ordered-residues": "RRIRQRPPRLPRPRPRPDSAPRP", "study-system": "Escherichia coli TOP10", "meas-value": -0.029}
{"ordered-residues": "RRIRGRPPRLPRPRPRPNEVPRP", "study-system": "Escherichia coli TOP10", "meas-value": 0.0747}
{"ordered-residues": "RRIRGRPPRLPRPRPRPTLFPRP", "study-system": "Escherichia coli TOP10", "meas-value": 0.824}

Need shrunken log2 fold change for each of these sequences.
1. RRIRTRPPRLPRPRPRPIIIPRP
2. RRIRFRPPRLPRPRPRPIWHPRP

# output
-0.219
-0.0746

* * *

Test system: Escherichia coli TOP10
experiment: shrunken log2 fold change of peptide-encoding DNA abundance (4.5 h post-induction vs induction); higher = less antimicrobial activity (less host growth inhibition)
condition-details: time post-induction: 4.5 h; library: site-saturation at positions 5, 18, 19, 20
Kind request: treat -0.4 as inclusive, so shrunken log2 fold change at -0.4 or higher is satisfied, anything lower is not satisfied.

The following sequences have reported results that may help.
{"ordered-residues": "RRIRKRPPRLPRPRPRPFKYPRP", "discrete-label": "not satisfied"}
{"ordered-residues": "RRIRIRPPRLPRPRPRPWGDPRP", "discrete-label": "satisfied"}
{"ordered-residues": "RRIRFRPPRLPRPRPRPLFMPRP", "discrete-label": "satisfied"}

# input Given the entry RRIRFRPPRLPRPRPRPHHKPRP , answer whether its shrunken log2 fold change meets or surpasses -0.4.
# output not satisfied

# input Given the entry RRIRPRPPRLPRPRPRPTCKPRP , answer whether its shrunken log2 fold change meets or surpasses -0.4.
# output satisfied

* * *

Tested on: Escherichia coli TOP10;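 further: peptides expressed intracellularly from a pBAD plasmid library in pooled LB shake-flask culture, induced with 0.3% L-arabinose, DNA abundance read by NGS, three biological replicates, DESeq2 with apeglm shrinkage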
experiment: shrunken log2 fold change of peptide-encoding DNA abundance (4.5 h post-induction vs induction); higher = less antimicrobial activity (less host growth inhibition)
condition-details: time post-induction: 4.5 h; library: site-saturation at positions 5, 18, 19, 20
Kind request: treat 0.006 as inclusive, so shrunken log2 fold change at 0.006 or higher is Criterion met, anything lower is Criterion not met.

{"ordered-residues": "RRIRWRPPRLPRPRPRPVTDPRP", "study-system": "Escherichia coli TOP10", "discrete-label": "Criterion met"}
{"ordered-residues": "RRIRKRPPRLPRPRPRPNAAPRP", "study-system": "Escherichia coli TOP10", "discrete-label": "Criterion met"}
{"ordered-residues": "RRIRQRPPRLPRPRPRPNIMPRP", "study-system": "Escherichia coli TOP10", "discrete-label": "Criterion not met"}

# input Given the entry RRIRFRPPRLPRPRPRPATCPRP , answer whether its shrunken log2 fold change meets or surpasses 0.006.
# output Criterion met

# input Given the entry RRIRRRPPRLPRPRPRPAVNPRP , answer whether its shrunken log2 fold change meets or surpasses 0.006.
# output Criterion met

# input Given the entry RRIRLRPPRLPRPRPRPFHCPRP , answer whether its shrunken log2 fold change meets or surpasses 0.006.
# output Criterion not met

# input Given the entry RRIRERPPRLPRPRPRPNAMPRP , answer whether its shrunken log2 fold change meets or surpasses 0.006.
# output Criterion met

# input Given the entry RRIRSRPPRLPRPRPRPVFAPRP , answer whether its shrunken log2 fold change meets or surpasses 0.006.
# output Criterion met

# input Given the entry RRIRPRPPRLPRPRPRPENDPRP , answer whether its shrunken log2 fold change meets or surpasses 0.006.
# output Criterion not met

# input Given the entry RRIRPRPPRLPRPRPRPVCWPRP , answer whether its shrunken log2 fold change meets or surpasses 0.006.
# output Criterion met

# input Given the entry RRIRPRPPRLPRPRPRPSMEPRP , answer whether its shrunken log2 fold change meets or surpasses 0.006.
# output Criterion not met

# input Given the entry RRIRWRPPRLPRPRPRPWLLPRP , answer whether its shrunken log2 fold change meets or surpasses 0.006.
# output Criterion not met
